Target desc: UniProt P31652
Sequence (P31652 whole entry): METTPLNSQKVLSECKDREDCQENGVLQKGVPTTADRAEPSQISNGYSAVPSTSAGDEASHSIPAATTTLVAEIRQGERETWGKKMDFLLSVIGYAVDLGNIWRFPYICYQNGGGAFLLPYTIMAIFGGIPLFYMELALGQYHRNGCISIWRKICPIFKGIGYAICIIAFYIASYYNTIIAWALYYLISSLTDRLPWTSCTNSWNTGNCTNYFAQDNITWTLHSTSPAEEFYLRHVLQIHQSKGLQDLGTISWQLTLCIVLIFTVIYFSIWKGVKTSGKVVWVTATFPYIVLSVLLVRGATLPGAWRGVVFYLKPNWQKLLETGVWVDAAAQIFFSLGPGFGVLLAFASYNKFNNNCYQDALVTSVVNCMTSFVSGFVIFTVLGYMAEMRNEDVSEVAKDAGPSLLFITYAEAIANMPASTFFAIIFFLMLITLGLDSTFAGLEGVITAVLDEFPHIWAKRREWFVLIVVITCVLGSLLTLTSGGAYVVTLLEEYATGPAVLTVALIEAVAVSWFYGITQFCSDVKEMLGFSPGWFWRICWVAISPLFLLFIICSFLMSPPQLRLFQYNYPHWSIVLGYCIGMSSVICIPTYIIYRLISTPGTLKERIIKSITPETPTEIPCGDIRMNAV
Assay info: The binding affinity at the 5-HT reuptake sites determined using competition binding assay
Property measured: pIC50
When answering, recall that pIC50 equals minus log10 of the concentration in mol/L, and write that number alone.

compound=COc1cccc2c1N1CCN(C)C[C@@H]1c1ccccc1C2 measured=5.78

Shifting focus to the compound that follows.
Request: Please report the recorded pIC50 for COc1cccc2c1N1CCN(C)CC1c1ccccc1C2 (racemic) .
Result: 5.54

====

Target desc: Adrenergic receptor alpha-1 (Rattus norvegicus, UniProt P15823+P23944+P43140)
Assay info: The binding affinity at Alpha-1 adrenergic receptor determined using [3H]prazosin
Format: protein assay
Listing of entries alongside the reported Ki.
Provide the reading as a plain figure in µM.

compound="CN1CCN2c3ncccc3Cc3ccccc3C2C1 (racemic)" target_desc="Adrenergic receptor alpha-1 (Rattus norvegicus, UniProt P15823+P23944+P43140)" property_measured=Ki measured=1.05
compound=COc1cccc2c1N1CCN(C)C[C@@H]1c1ccccc1C2 target_desc="Adrenergic receptor alpha-1 (Rattus norvegicus, UniProt P15823+P23944+P43140)" property_measured=Ki measured=0.205
compound=COc1cccc2c1N1CCN(C)C[C@H]1c1ccccc1C2 target_desc="Adrenergic receptor alpha-1 (Rattus norvegicus, UniProt P15823+P23944+P43140)" property_measured=Ki measured=0.074

Request: Entry under review: COc1cccc2c1N1CCN(C)CC1c1ccccc1C2 (racemic) . Reported Ki?
Result: 0.084

Request: Field request: Ki | item: CN1CCN2c3c(O)cccc3Cc3ccccc3C2C1 (racemic)
Result: 1
